target: Aurora2 kinase (Homo sapiens, UniProt O14965); construct: A complete recombinant Aurora2 enzyme; His tag (N); made in house; host or cells: E. coli; assay: Aurora2 kinase radioactivity scintillation assay using nickel chelate (NuMA substrate); type: biochemical; details: 10 μM; read-out: Aurora2 % inhib at 10 μM
Sequence (O14965 whole entry): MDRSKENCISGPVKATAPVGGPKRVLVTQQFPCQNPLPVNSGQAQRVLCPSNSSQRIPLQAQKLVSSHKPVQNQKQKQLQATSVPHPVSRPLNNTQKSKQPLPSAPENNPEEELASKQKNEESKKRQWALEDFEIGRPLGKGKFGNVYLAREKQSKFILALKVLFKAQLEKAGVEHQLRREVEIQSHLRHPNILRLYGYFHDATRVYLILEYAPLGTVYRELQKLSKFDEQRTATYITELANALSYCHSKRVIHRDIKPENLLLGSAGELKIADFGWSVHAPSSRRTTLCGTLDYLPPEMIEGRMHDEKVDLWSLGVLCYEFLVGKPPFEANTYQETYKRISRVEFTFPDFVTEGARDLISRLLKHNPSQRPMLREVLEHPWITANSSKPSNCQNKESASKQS
quantity-kind: inhibition at 10 µM
Please don't drop the unit; write it after the number.

COc1ccc(S(=O)(=O)Nc2ccc3[nH]nc(-c4ccccc4)c3c2)cc1; 52%
CS(=O)(=O)c1ccccc1S(=O)(=O)Nc1ccc2[nH]nc(-c3cccc(OCc4ccccc4)c3)c2c1; 31%
CS(=O)(=O)c1ccccc1S(=O)(=O)Nc1ccc2[nH]nc(-c3ccc(F)cc3)c2c1; 89%

// switching to the query compound
Request: Look up inhibition at 10 µM with Aurora2 kinase (Homo sapiens, UniProt O14965) for this compound: Nc1n[nH]c2ccc(NS(=O)(=O)c3c(Cl)cccc3Cl)cc12
Response: 90%

====

Listed here are compounds together with their documented inhibition at 10 µM.
target: human KDR enzyme (Homo sapiens); construct: The cytoplasmic domain of the human KDR enzyme; GST; made in house; host or cells: SF21 insect cells (baculovirus); test: KDR substrate (PLCγ) phosphorylation, scintillation assay; type: biochemical; details: 10 μM; read-out: KDR % inhib at 10 μM
Sequence (P35968 786-1356 limits assumed): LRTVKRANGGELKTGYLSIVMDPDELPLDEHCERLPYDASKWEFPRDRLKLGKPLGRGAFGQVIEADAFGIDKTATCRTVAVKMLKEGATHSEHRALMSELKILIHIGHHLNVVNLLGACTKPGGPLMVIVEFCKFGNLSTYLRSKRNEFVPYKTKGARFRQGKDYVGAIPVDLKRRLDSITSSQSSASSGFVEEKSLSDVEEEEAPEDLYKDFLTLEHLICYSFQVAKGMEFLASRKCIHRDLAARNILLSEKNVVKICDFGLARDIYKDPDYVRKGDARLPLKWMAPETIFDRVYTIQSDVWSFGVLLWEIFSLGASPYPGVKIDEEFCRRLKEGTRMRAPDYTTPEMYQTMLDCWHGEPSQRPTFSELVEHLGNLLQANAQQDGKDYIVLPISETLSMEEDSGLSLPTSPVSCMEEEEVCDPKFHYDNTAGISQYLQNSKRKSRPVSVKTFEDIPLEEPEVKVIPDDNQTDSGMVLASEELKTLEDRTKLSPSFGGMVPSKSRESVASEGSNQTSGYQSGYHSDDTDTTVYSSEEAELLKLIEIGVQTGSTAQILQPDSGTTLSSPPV
Please state the figure in %; there is no need to write the unit.

Known inhibition at 10 µM results, listed for orientation:
CS(=O)(=O)c1ccccc1S(=O)(=O)Nc1ccc2[nH]nc(C(=O)Nc3ccccc3)c2c1 [Example 18]; 18
O=S(=O)(Nc1ccc2[nH]nc(Cl)c2c1)c1ccc(Cl)c(Cl)c1 [Example 2]; 43
CS(=O)(=O)c1ccccc1S(=O)(=O)Nc1ccc2[nH]nc(-c3cc4ccccc4[nH]3)c2c1 [Example 61]; 98
COc1ccc2[nH]c(-c3n[nH]c4ccc(NS(=O)(=O)c5ccccc5S(C)(=O)=O)cc34)cc2c1 [Example 58]; 97
CS(=O)(=O)c1ccc(S(=O)(=O)Nc2ccc3[nH]nc(-c4ccccc4)c3c2)cc1 [Example 155]; 61
CS(=O)(=O)c1ccccc1S(=O)(=O)Nc1ccc2[nH]nc(-c3ccc(OCc4ccccc4)c(F)c3)c2c1 [Example 194]; 39
COC(=O)/C=C/c1n[nH]c2ccc(NS(=O)(=O)c3ccccc3S(C)(=O)=O)cc12 [Example 79]; 50
CS(=O)(=O)c1ccccc1S(=O)(=O)Nc1ccc2[nH]nc(-c3ccc(F)c(Cl)c3)c2c1 [Example 167]; 44

Request: Look up inhibition at 10 µM for this compound: CS(=O)(=O)c1ccccc1S(=O)(=O)Nc1ccc2[nH]nc(-c3ccc(Oc4ccccc4)cc3)c2c1 [Example 171]
Response: 40

Request: Look up inhibition at 10 µM for this compound: CS(=O)(=O)c1ccccc1S(=O)(=O)Nc1ccc2[nH]nc(-c3ccc(-c4ccccc4)c(F)c3)c2c1 [Example 210]
Response: 50

Request: Look up inhibition at 10 µM for this compound: CS(=O)(=O)c1ccccc1S(=O)(=O)Nc1ccc2[nH]nc(C#Cc3ccccc3)c2c1 [Example 89]
Response: 85

Request: Look up inhibition at 10 µM for this compound: CS(=O)(=O)Nc1ccc2[nH]nc(-c3ccccc3)c2c1 [Example 124]
Response: 55

Request: Look up inhibition at 10 µM for this compound: CS(=O)(=O)c1ccccc1S(=O)(=O)Nc1ccc2[nH]nc(-c3cccc(N)c3)c2c1 [Example 62]
Response: 74

Request: Look up inhibition at 10 µM for this compound: CS(=O)(=O)c1ccccc1S(=O)(=O)Nc1ccc2[nH]nc(-c3cccc4c3oc3ccccc34)c2c1 [Example 169]
Response: 66

Request: Look up inhibition at 10 µM for this compound: CS(=O)(=O)c1ccccc1S(=O)(=O)Nc1ccc2[nH]nc(-c3cc4ccccc4o3)c2c1 [Example 180]
Response: 29

Request: Look up inhibition at 10 µM for this compound: CS(=O)(=O)c1ccccc1S(=O)(=O)Nc1ccc2[nH]nc(-c3ccncc3)c2c1 [Example 54]
Response: 76

Request: Look up inhibition at 10 µM for this compound: O=S(=O)(Nc1ccc2[nH]nc(I)c2c1)c1cccc(F)c1 [Example 12]
Response: 39

Request: Look up inhibition at 10 µM for this compound: Cc1cc2[nH]nc(-c3ccccc3)c2cc1NS(=O)(=O)c1ccccc1S(C)(=O)=O [Example 92]
Response: 66

Reference source for all entries: patent US6858638B2
